These data points were gathered from paper PMC12136037.

Here the recorded dTm is given for each entry.
- TEST TARGET: ~100 representative kinases (Homo sapiens, UniProt Q96NX5)
- Construct: Recombinant protein kinase domains with a concentration of 2 μM
- Sequence (Q96NX5 whole entry, the tested form may be a part): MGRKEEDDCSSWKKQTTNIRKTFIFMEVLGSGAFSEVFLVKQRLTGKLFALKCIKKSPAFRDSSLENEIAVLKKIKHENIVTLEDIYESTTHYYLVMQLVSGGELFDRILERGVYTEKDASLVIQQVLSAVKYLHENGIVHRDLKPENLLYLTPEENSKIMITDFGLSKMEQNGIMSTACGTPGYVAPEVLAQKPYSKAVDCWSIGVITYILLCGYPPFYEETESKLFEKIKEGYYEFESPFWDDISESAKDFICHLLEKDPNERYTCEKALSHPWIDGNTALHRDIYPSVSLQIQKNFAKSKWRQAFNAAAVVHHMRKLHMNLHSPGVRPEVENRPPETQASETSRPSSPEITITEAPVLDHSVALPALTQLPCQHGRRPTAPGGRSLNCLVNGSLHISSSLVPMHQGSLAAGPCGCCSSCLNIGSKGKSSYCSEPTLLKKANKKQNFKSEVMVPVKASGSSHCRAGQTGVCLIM
- PROTOCOL NOTES: DSF 100 kinase selectivity screen;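 also: compound tested at 20 µM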
- Type: binding
- MEASUREMENT PARAMETERS: Protein CAMK1G; average of three replicates
- Protocol: Recombinant protein kinase domains with a concentration of 2 μM were mixed with a 20 μM compound solution in dimethyl sulfoxide (DMSO), 20 mM Hepes (pH 7.5), and 500 mM NaCl. SYPRO Orange (5000×, Invitrogen) was added as a fluorescence probe (1μl/ml). Subsequently, temperature-dependent protein unfolding profiles were measured using the QuantStudio 5 realtime PCR machine (Thermo Fisher Scientific, Waltham, MA, USA). […] The temperature was raised with a step rate of 3°C/min. […]
Write down the numeric answer in K and omit the unit.

Solved entries:
- O=C(Nc1cccc(-c2c[nH]c3ncnc(N4CCOCC4)c23)c1)C1(C(=O)Nc2ccc(F)cc2F)CC1: 1.64
- Cc1cc(NC(=O)C2(C(=O)Nc3cccc(-c4c[nH]c5ncnc(N6CCOCC6)c45)c3)CC2)ccc1F: 2.80
- O=C(Nc1cccc(-c2c[nH]c3ncnc(N4CCOCC4)c23)c1)C1(C(=O)Nc2ccc(F)c(Cl)c2)CC1: 3.39
- O=C(Nc1cccc(-c2c[nH]c3ncnc(N4CCOCC4)c23)c1)C1(C(=O)Nc2cc(Br)c(F)cc2F)CC1: 4.91
- CCNc1nc(Nc2cc(F)c(C(=O)N3CCOCC3)cc2OC)ncc1C(F)(F)F: 0.32
- O=C(Nc1ccc(Cl)cc1)C1(C(=O)Nc2cccc(-c3c[nH]c4ncnc(N5CCOCC5)c34)c2)CC1: 3.50

// below: dTm requested for another compound
Could you please provide reported dTm for CCSc1nc(NC)c2c(-c3cccc(NC(=O)Nc4cc(C(C)(C)C)nn4-c4ccc(C)cc4)c3)c[nH]c2n1 ? Thanks!
0.27

* * *

Here the recorded dTm is given for each entry.
- TEST TARGET: ~100 representative kinases (Homo sapiens, UniProt Q99986)
- Construct: Recombinant protein kinase domains with a concentration of 2 μM
- Sequence (Q99986 1-396): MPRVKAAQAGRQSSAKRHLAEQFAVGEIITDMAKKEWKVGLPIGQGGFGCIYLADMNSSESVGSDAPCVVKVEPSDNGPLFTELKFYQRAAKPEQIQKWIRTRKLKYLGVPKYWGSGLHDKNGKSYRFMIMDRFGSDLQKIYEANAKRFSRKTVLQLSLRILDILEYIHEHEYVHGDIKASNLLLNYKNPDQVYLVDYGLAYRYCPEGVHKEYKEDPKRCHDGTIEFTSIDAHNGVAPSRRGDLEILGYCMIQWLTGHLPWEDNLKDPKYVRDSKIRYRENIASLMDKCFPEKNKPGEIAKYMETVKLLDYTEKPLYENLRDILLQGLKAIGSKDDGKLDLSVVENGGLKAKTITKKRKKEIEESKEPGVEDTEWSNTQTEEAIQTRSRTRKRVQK
- PROTOCOL NOTES: DSF 100 kinase selectivity screen;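 also: compound tested at 20 µM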
- Format: binding
- MEASUREMENT PARAMETERS: Protein VRK1; DSF; average of three replicates
Write down the numeric answer in K and omit the unit.

- Cc1ccc(-n2nc(C(C)(C)C)cc2NC(=O)Nc2cccc(-c3c[nH]c4nc(Cl)nc(N5CCOCC5)c34)c2)cc1 [Compound 30]: -1.13
- Cc1ccc(C(=O)Nc2ccc(CN3CCN(C)CC3)c(C(F)(F)F)c2)cc1C#Cc1cnc2[nH]ncc2c1 [GZD-824, reference compound]: 0.0366
- O=C(Nc1cccc(-c2c[nH]c3ncnc(N4CCOCC4)c23)c1)c1cccn(-c2ccc(F)cc2)c1=O [Compound 4]: 1.12

// below: dTm requested for another compound
Could you please provide reported dTm for Cn1cc(-c2c[nH]c3ncnc(N4CCOCC4)c23)cc1C#N [PFE-360] ? Thanks!
0.0159
